target_or_system: ATP-binding cassette sub-family C member 2 (Rattus norvegicus)
Sequence (Q63120 whole entry): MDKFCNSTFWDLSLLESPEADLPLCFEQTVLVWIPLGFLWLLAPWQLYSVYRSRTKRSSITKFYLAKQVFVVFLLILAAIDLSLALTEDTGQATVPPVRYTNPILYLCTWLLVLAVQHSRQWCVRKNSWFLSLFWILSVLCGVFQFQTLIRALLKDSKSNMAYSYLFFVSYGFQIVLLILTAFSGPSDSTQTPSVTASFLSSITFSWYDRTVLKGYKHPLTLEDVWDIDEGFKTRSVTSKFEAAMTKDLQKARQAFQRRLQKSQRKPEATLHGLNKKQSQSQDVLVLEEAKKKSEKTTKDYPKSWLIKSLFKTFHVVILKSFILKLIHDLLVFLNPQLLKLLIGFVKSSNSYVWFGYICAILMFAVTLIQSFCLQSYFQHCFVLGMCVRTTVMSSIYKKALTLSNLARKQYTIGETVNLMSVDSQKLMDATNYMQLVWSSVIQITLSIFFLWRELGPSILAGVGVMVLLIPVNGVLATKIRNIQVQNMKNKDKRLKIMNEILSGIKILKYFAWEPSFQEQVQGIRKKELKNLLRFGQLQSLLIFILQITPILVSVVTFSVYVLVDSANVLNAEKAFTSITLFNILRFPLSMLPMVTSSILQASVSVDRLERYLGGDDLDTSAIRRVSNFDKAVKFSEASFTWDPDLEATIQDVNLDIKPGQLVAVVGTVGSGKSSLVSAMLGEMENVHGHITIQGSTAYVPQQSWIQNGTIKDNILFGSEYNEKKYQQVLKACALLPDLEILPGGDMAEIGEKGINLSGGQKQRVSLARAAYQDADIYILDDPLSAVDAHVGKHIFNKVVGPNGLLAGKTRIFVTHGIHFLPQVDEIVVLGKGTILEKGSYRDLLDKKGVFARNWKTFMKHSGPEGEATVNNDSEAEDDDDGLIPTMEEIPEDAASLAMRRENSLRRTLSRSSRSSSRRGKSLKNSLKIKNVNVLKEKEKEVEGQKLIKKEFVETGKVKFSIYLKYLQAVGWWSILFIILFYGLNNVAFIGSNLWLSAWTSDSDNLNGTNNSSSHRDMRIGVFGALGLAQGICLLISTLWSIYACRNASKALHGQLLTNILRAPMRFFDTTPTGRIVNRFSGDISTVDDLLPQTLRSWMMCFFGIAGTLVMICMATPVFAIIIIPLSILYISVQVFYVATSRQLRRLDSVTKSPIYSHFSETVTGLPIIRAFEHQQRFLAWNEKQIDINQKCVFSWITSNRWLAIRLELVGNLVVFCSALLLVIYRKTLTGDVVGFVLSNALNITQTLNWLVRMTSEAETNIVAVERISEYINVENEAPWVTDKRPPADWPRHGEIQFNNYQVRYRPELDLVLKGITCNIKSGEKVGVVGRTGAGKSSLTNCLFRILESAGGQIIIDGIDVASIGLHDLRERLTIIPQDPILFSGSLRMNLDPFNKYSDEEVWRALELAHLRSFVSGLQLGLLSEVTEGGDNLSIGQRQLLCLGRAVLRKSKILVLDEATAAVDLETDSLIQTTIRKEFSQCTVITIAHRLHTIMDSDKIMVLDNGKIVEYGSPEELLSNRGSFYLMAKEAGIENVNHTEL
protocol_summary: TP_TRANSPORTER: inhibition of DNP-SG uptake in bile canalicular membrane vesicles from SD rat
result_type: Ki (µM)
The reply should contain only the number, in µM.

Prompt: Consider the molecule CC[C@H](C)C(=O)O[C@H]1C[C@H](O)C=C2C=C[C@H](C)[C@H](CC[C@@H](O)C[C@@H](O)CC(=O)O)[C@H]21 [PRAVASTATIN] and give its recorded Ki.
Completion: 172

// data source = ChEMBL document CHEMBL2074202
